Recorded Resistance index values for a group of compounds are listed next.
Assay: Resistance index as the ratio of IC50 value against FAC8 to that of D10 strains.
Type: functional
Output spec: single numeric token, no unit.

Before answering, review these 6 worked examples.
CCN(CC)CCCC(C)Nc1ccnc2ccc(NC(=O)C(=O)Nc3ccc4nccc(NC(C)CCCN(CC)CC)c4c3)cc12 (centres undefined): 0.7
CCN(CC)CCCC(C)Nc1ccnc2c(NC(=O)CCC(=O)Nc3cccc4c(NC(C)CCCN(CC)CC)ccnc34)cccc12 (centres undefined): 2.2
CCN(CC)CCCC(C)Nc1ccnc2ccc(NC(=O)CCCCCCCCC(=O)Nc3ccc4nccc(NC(C)CCCN(CC)CC)c4c3)cc12 (centres undefined): 0.7
CCN(CC)CCCC(C)Nc1ccnc2c(NC(=O)CCCCCCC(=O)Nc3cccc4c(NC(C)CCCN(CC)CC)ccnc34)cccc12 (centres undefined): 0.9
CCN(CC)CCCC(C)Nc1ccnc2ccc(NC(=O)CCCCCCC(=O)Nc3ccc4nccc(NC(C)CCCN(CC)CC)c4c3)cc12 (centres undefined): 1
CCN(CC)CCCC(C)Nc1ccnc2c(NC(=O)CCCCC(=O)Nc3cccc4c(NC(C)CCCN(CC)CC)ccnc34)cccc12 (centres undefined): 0.9

Given the entry CCN(CC)CCCC(C)Nc1ccnc2ccc(NC(=O)CCCCC(=O)Nc3ccc4nccc(NC(C)CCCN(CC)CC)c4c3)cc12 (centres undefined) , report its measured Resistance index.
1.1

Try this compound too: CCN(CC)CCCC(C)Nc1ccnc2c(NC(=O)CCCCCCCCC(=O)Nc3cccc4c(NC(C)CCCN(CC)CC)ccnc34)cccc12 (centres undefined)
1.2

Try this compound too: CCN(CC)CCCC(C)Nc1ccnc2c(NC(=O)C(=O)Nc3cccc4c(NC(C)CCCN(CC)CC)ccnc34)cccc12 (centres undefined)
1.4

Reference source for all entries: ChEMBL document CHEMBL1128338
